- Target: murine α2AAR (Mus musculus (Mouse), UniProt Q01338)
- Sequence (Q01338 whole entry): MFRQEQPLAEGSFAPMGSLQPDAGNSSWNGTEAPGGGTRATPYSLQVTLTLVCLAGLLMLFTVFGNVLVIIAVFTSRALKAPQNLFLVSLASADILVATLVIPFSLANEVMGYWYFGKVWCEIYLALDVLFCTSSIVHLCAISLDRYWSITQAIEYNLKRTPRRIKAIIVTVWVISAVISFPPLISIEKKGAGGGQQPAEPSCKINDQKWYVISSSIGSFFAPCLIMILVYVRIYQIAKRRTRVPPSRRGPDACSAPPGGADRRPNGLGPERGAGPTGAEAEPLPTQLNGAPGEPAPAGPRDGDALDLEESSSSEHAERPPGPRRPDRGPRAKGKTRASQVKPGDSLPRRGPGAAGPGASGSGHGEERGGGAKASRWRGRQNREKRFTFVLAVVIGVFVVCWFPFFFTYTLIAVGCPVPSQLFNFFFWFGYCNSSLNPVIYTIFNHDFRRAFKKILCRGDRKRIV
pKd: −log10 of the molar value.

{"Molecule": "COC1(C2=NCCN2)COc2ccccc2O1 (stereo not shown) [[^3H]RX82,1002]", "pKd": 8.74}

====

Entries and their Emax
- Target: ALPHA-2A ADRENERGIC RECEPTOR (Homo sapiens (Human))
- Sequence (P08913 whole entry): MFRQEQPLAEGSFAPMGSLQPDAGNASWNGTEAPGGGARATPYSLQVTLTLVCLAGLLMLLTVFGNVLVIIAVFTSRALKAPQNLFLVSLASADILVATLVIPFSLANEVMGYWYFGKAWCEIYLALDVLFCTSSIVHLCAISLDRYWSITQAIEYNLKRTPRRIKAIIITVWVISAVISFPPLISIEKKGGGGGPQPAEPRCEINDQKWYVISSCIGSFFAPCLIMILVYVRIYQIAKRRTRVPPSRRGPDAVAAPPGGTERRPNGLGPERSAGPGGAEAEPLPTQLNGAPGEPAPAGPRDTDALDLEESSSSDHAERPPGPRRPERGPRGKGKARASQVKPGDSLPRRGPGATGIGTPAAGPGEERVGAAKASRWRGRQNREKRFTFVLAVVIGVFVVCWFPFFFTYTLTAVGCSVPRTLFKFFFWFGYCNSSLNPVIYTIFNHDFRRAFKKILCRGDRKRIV
- Assay method text: Gi recruitment (G protein)
- Assay type: cell-based
- Run parameters: Gi recruitment, Table 6; read-out: Emax (%)
Counter-ions that a name gives are not always drawn.
Assay metric: Emax (%)

{"Compound": "Clc1ncc2ccccc2c1Nc1ccncc1", "Unit": "%", "Measured": 45}
{"Compound": "Fc1cccc2c(Nc3ccncc3)cccc12", "Unit": "%", "Measured": 89}
{"Compound": "Clc1ccc2cccc(Nc3ccncc3)c2c1 [PS75, TFA]", "Unit": "%", "Measured": 79}
{"Compound": "c1cc(Nc2ccncc2)c2sccc2c1", "Unit": "%", "Measured": 76}
